Test: yeast display, Sf9 membrane polyspecificity reagent, FACS + sequencing; frameworks hold sequencing errors

# seq-string, polyreactivity (PSR sort gate)
records = [
    ("QVQLVEAGGGLVQAGGSLRLSCAASGQIFRKNARGWYSQAPGKERELVAAINSGGSTKYADSVKGRFTISRDNAKNTVYLQMNSLKPEDTAVDYCAARGRYGVPPGRAHDNWRQGTQVTVSS", "high polyreactivity"),
    ("QVQLVESGGGLVQAGGSLRLSCAASGSTFIRYAMGWYRQAPGKERELVAAISSGGGNTYYADSVKGRFTISRDNAKNTVYLQMDSLKPEDTAVYYCAARYLAYGPTGYLYGYNYWGQGTQVTVSS", "high polyreactivity"),
    ("QGQLVESGRGLVQAGGSLSLSCAASGSTFFIYAMGWYRQAPGKERELVAAINRSGGRTYYADSVKGRFTISRYTAQNTVYLQMNSLKPEDTAVYYCAAYLGPYVRFYYWGQGTQGTVSS", "high polyreactivity"),
    ("QVQLVESGGGLDQAGGSLRLSCAASGSTFRYYTMGWYRQAHGKERELVAAISSRGGSTYYADSVKGRFTISRDNAKKTVYLQMNSLKPEDSAVYYCCALYPSWAQRGRDYWGQGTQVSVSS", "high polyreactivity"),
    ("QVQLVESGGGLVQAGGSLRLSCAASGSTRRYYAMGWYRQAPGKERELVAAITRLGSTNYADSVKGRFTISRDNAKNTVYLQMNSLKPEDTAVYYCNTRWRYRPYRYRGDGGDYWAQGTQVTVSS", "high polyreactivity"),
    ("QLQLVESGGGLVQAGGSLRLSCAASGSILYIKTMGWYRQAPGKERELVAAITYSGGSTYYADAVKGRFTISRDNAKNTVYLQMTSLKPEDTAVYYCAADGYYGGFNYWGQGTQVTVSS", "low polyreactivity"),
    ("QVQLLESGGGLVQAGGSLRLTCAASGRIFAYYAMAWYRQAPGKERELVAAITSGGSTYYADSVKGRFTISRDNAKNTVYLQMNILKPEDTAVYYCNAGYGQWSRGHWRLSSVPYYYWGQGTQVTVSS", "high polyreactivity"),
    ("QVQLVESGGGLVQAGGSLRLSCAASGFTFYSNDMGWYRQAPGKERELVAAISYSGGSTYYADSVKGRFTISRDNAKNTVYLQMKRLNPEDTAVYYCAAGGLQQGDYWGQGTQVTVSS", "low polyreactivity"),
    ("QVQLVESGGGLVQAGGSLRLSCAASGRILGKNALGWYRQAPGKEREWVADISGRGDRTHYADSVKGRFTISRDNAKNTVYLQMNSLNAEYTAVYYCAKYHHPPGKGQSVSLGYDFWGQGTQVTVSS", "low polyreactivity"),
    ("QVQLVDSGGGLVQAGGSLRLSCAASGYTFVGYAMGWSRQAPGKERELVAVISGSGGSTRYADSVKGRFTISRDNAKNTVYLQMNSLKPEDTAVYYCAARQPRTQAVYEGYYWGQGTQVTVSS", "high polyreactivity"),
    ("QVQLVESRGGLVQAGGSLRLSCAASGRTFLYNAMGWYRQAPGKERELVAAITDGGNTYYADSVKGRFTISRDNAKNTVYLHMKSLNPEDTAVYYCNAYVLFYTYFTRGRFDFDYWGQGTQVTVSS", "low polyreactivity"),
    ("QVQLVESGGGLVQAGGSLRLSCAASGRTFYYNAMGWYRQAPGKERELVARITSSGGSTYYADSVKGRFTISRDNAKSTVYLQMNSLKPEDTAVSYCAAGRSRYLWFGRDFDYWGQGTQVTVSS", "low polyreactivity"),
    ("QVQLVESGGGLVQAGGSLRLSCAASGRIFGTYAMGWYRQAPGKERELVAAITQSGGRTYYADSVKGRFTISRDNAKNTVYLQMNSLKPEDTAVYYCNKVTYRGIGLGYDYWGQGTQVTVSS", "high polyreactivity"),
    ("QVQLVESGGGLVQAGGSLRLSCAASGYTFDAYAMGWYRQAPGKERELVAAITTNGGSTYYADSVKGRFTISRDNAKNTVYLQMNSLKPEDTAVYYCNAEYWYEGRYPYDYWGQGTQVTVSS", "low polyreactivity"),
    ("QVQLVESGGGLVQAGGSLRLSCAASGIIFSFYAMGWYRQAPGKERELVAAISRSGGSTYYADSVKGRFTISRDNAKNTVYLQMNSLKPEDTAVYYCNADNGASYYYRRYDSWGQGTQVTVSS", "high polyreactivity"),
    ("QVQLVESGGGLVQAGGSLHLSCAASGSIFPYNLMGWYRQAPGKERELVAAISNTGSTNYADSVKGRFTISRDNAMNTVYFQMNSLKPDDTAVYYCNADGSYGFWSLLDYDYWGQGTQVTVSS", "low polyreactivity"),
    ("QVQLVESGGGLVQAGGSLRLSCAASGRTFSAYVMGWYRQAPGKEREFVATIRRTGSTYYADSVKGRFTISRDNAKNTVYLQMNSLKPEDTAVYYCNRGSFPSVQGSYPGYGYWGQGTQVTVSS", "high polyreactivity"),
    ("QVQLVESGGGLVQAGGSLRLSCAASGITFYIYAMGWYRQSPGKERELVATISWSDGRTYYADSVKGRFTISRDNAKNTVYLLMNSLKPEDTAVYYCAADWWYYQFDYEYWGQGTQVTVSS", "low polyreactivity"),
    ("QVQLVESGGGLVQAGGSLRLSCAASGRTFRYYTMGWYRQAPGKEREFVAAISSTGGTYYADSVKGRFTISRDNAKNTVYLQMNSLKPEDTAVYYCNATTSSNEYDSWGQGTQVTVSS", "low polyreactivity"),
    ("QVQLVESGGGLVQAGGSLRLSCAASGRTFRYNAMGWYRQAPGKERELVAAITGGGSTYYADSVKGRFTISRDTAKNTVYLQMNSLKPEDTAVYYCAAANWRRIDYRYRFDYWGQGTQVTVSS", "high polyreactivity"),
    ("QVQLVESGGGLVQAGGSLRLSCAASGFTFGYYTMGWYRQAPGKERELVAAISSSGGSTYYADSVKGRFTISRDNAKNTVYLQMNSLKPEDTAVYYCAARSVRYGGRYDYWGQGTQVTVSS", "high polyreactivity"),
]
